Data provenance is patent US8846669B2.

# System: Linezolid and Vancomycin Resistant Enterococcus faecium (strain 11)
# protocol.description: In vitro antibacterial activity, broth microdilution MIC90
# Type: cell-based
# condition.context: Enterococcus faecium
Binary label based on MIC90 with cut-off 2 µg/mL: below gives fulfilled, not below gives not fulfilled.

structure.string	category.label
CCN1CCN(c2ccc(-c3ccc(N4C[C@H](CO)OC4=O)cc3F)cn2)C=N1	not fulfilled
CC(=O)NC[C@H]1CN(c2ccc(-c3ccc(N4CCN(C(=O)CO)C=N4)nc3)c(F)c2)C(=O)O1	fulfilled
CC(=O)NC[C@H]1CN(c2ccc(-c3ccc(N4C=NN(C)CC4)nc3)c(F)c2)C(=O)O1	fulfilled
NCC(=O)N1CCN(c2ccc(-c3ccc(N4C[C@H](Cn5ccnn5)OC4=O)cc3F)cn2)C=N1	not fulfilled
CC(=O)NC[C@H]1CN(c2ccc(-c3ccc(N4C=NN(C(=O)COC(C)=O)CC4)nc3)c(F)c2)C(=O)O1	fulfilled
CC(=O)NC[C@H]1CN(c2ccc(-c3ccc(N4C=NN(C(=O)CO)CC4)nc3)c(F)c2)C(=O)O1	fulfilled
